Provide the reported abundance fitness of each item.
B1: Histone-lysine N-methyltransferase SETD2, residues 2382 to 2430; numbered along this chain, Q9BYW2 (parent)
chain: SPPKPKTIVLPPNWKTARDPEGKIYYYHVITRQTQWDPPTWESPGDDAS

Variants of: B1
Test: abundance fitness (aPCA) (normalised: wild type 0, dead -1); higher = more abundant; growth selection in yeast, the domain comes from the species named
Settings: Homo sapiens
Just the number, please, no unit attached.

Query :: Please give the measured abundance fitness for this variant: Y26E
Result :: -0.981

Query :: Requested field: abundance fitness. Item: P2K
Result :: -0.087

Query :: Fill blank: measured abundance fitness of the variant D46Q is ____.
Result :: -0.358

Query :: Looking for the measured abundance fitness of Y27E , can you help?
Result :: -0.3

Query :: GET /values?readout=abundance fitness&item= P3N
Result :: 0.585

Query :: Entry P44V : reported abundance fitness = ?
Result :: -0.263

Query :: Please report the recorded abundance fitness for P11K .
Result :: -0.281

Query :: Item under review: Y25R . Reported abundance fitness?
Result :: -0.628

Query :: What abundance fitness value was documented for this variant, Y25C ?
Result :: -0.538

Query :: Look up abundance fitness for this variant: D19C
Result :: -0.725

Query :: Tell me the measured abundance fitness of I8W , please.
Result :: 0.001

Query :: Report abundance fitness for V9R please.
Result :: 0.025

Query :: Fill in: abundance fitness of K6N is ___
Result :: 0.018

Query :: Consider the variant L10K and give its measured abundance fitness.
Result :: -0.553

Query :: Can you look up the measured abundance fitness of P12I for me?
Result :: -0.451

Query :: Looking for the measured abundance fitness of I8F , can you help?
Result :: -0.021

Query :: Which value of abundance fitness has been reported for Y25T in the records?
Result :: -0.73

Query :: Name the reported abundance fitness value associated with the variant P5C
Result :: -0.396

Query :: // lookup abundance fitness for H28S
Result :: -0.767

Query :: Fill blank: measured abundance fitness of the variant I30C is ____.
Result :: -0.498

Query :: abundance fitness for R32T ?
Result :: -1.01

Query :: Give the measured abundance fitness of I30A .
Result :: -0.314

Query :: Please give the measured abundance fitness for this variant: Y25G
Result :: -0.844

Query :: Which value of abundance fitness has been reported for Q35P in the records?
Result :: -0.535

Query :: I am curious: what abundance fitness value has been reported for W41K ?
Result :: 0.165

Query :: Look at this variant and give its reported abundance fitness. P12R
Result :: 0.009

Query :: Using the record for L10T , report its abundance fitness.
Result :: -0.431

Query :: If you can, please state the reported abundance fitness value of N13S .
Result :: -0.362

Query :: GET /values?readout=abundance fitness&item= P38Q
Result :: -0.255

Query :: Give the measured abundance fitness of K4G .
Result :: -0.97

Query :: Please look up its abundance fitness: P20R
Result :: 0.017

Query :: Item under review: A48H . Reported abundance fitness?
Result :: -0.081

Query :: Given the entry G22I , report its measured abundance fitness.
Result :: -0.753

Query :: Recorded abundance fitness for P3Q , please?
Result :: 0.262

Query :: For the variant shown here, K6A , give the reported abundance fitness.
Result :: -0.032

Query :: Report abundance fitness for P11I please.
Result :: -0.84

Query :: May I ask what abundance fitness has been recorded for D46L ?
Result :: -0.053

Query :: Which abundance fitness is listed for A48N ?
Result :: 0.153

Query :: Endpoint output: abundance fitness of P39Q . Value?
Result :: -0.659

Query :: What does the data say about its abundance fitness? Entry: S49Q
Result :: -0.031

Query :: abundance fitness for A17F ?
Result :: -0.543

Query :: What measured abundance fitness goes with P5A ?
Result :: 0.102

Query :: So what's the measured abundance fitness for this one? K23M
Result :: -0.514

Query :: # input variant: A48Y ; wanted: its abundance fitness
Result :: 0.036

Query :: What value of measured abundance fitness is listed for G45A ?
Result :: 0.087

Query :: Param item = T40H ; retrieve measured abundance fitness.
Result :: 0.155

Query :: Reported abundance fitness, variant T34Y : ____
Result :: -0.52

Query :: Suppose we examine the variant H28G ; what abundance fitness value has been reported?
Result :: -1.01

Query :: May I ask what abundance fitness has been recorded for T7D ?
Result :: -0.134

Query :: Given P3S , state its recorded abundance fitness.
Result :: 0.281

Query :: // query abundance fitness value for entry V9W
Result :: -0.24

Query :: Name the recorded abundance fitness for R18H .
Result :: -0.286

Query :: Query (variant): H28D ; field requested: abundance fitness
Result :: -0.213

Query :: Recorded abundance fitness of W14D , please.
Result :: -0.74

Query :: # abundance fitness lookup, item T34F
Result :: -0.059

Query :: So what does the record say about abundance fitness for P2G ?
Result :: 0.045

Query :: Please give the measured abundance fitness for this variant: T7S
Result :: 0.105

Query :: Reported abundance fitness, variant W14G : ____
Result :: -0.855

Query :: Look up abundance fitness for this variant: I30W
Result :: -0.447

Query :: Data request, read-out abundance fitness, for S1F
Result :: 0.246

Query :: Any idea what abundance fitness was measured for G22N ?
Result :: -0.555

Query :: Request the reported abundance fitness associated with V9L
Result :: -0.075

Query :: So what's the measured abundance fitness for this one? P39G
Result :: -1.04

Query :: Quick one: abundance fitness of P20Q ?
Result :: 0.015

Query :: Find the recorded abundance fitness belonging to V29H and report it.
Result :: -0.208

Query :: # query: abundance fitness of entry P39H
Result :: -0.748

Query :: Quick check: abundance fitness of H28R ?
Result :: -1.03

Query :: Recorded abundance fitness for S49Y , please?
Result :: -0.194

Query :: Please give the measured abundance fitness for this variant: D37N
Result :: -0.298

Query :: Entry Q35H : reported abundance fitness = ?
Result :: -0.083

Query :: So what's the measured abundance fitness for this one? G22F
Result :: -0.733

Query :: Entry under review: T40L . Reported abundance fitness?
Result :: -0.071

Query :: For the variant shown here, L10I , give the reported abundance fitness.
Result :: -0.026

Query :: Query (variant): S43R ; field requested: abundance fitness
Result :: -0.11

Query :: Any idea what abundance fitness was measured for L10Q ?
Result :: -0.529

Query :: May I ask what abundance fitness has been recorded for E21Y ?
Result :: -0.552

Query :: Return reported abundance fitness; argument: I30H
Result :: -0.068

Query :: Given the entry K4H , report its measured abundance fitness.
Result :: -0.221

Query :: For K23Y , what is its reported abundance fitness?
Result :: -0.316

Query :: I would be grateful if you could share the reported abundance fitness for L10S .
Result :: -0.684

Query :: # lookup: abundance fitness of P20M
Result :: -0.078

Query :: May I ask what abundance fitness has been recorded for K6C ?
Result :: -0.303

Query :: # input variant: I8Q ; wanted: its abundance fitness
Result :: -0.056

Query :: For the variant shown here, K4C , give the reported abundance fitness.
Result :: -0.564

Query :: Please give the measured abundance fitness for this variant: P2A
Result :: 0.131

Query :: Report abundance fitness for K6F please.
Result :: -0.121

Query :: Entry P11E has what abundance fitness?
Result :: -0.5

Query :: Can you share its abundance fitness? I mean this variant: S1E
Result :: -0.534

Query :: Tell me the measured abundance fitness of T34C , please.
Result :: -0.109

Query :: Return reported abundance fitness; argument: Y27H
Result :: -0.293

Query :: What does the record list as abundance fitness for A17G ?
Result :: -0.022
